Biological target: T1, human CD47 expressed on cells (CD47 expressing CHO cells, Jurkat, HL60, DLD1, Raji) (human, UniProt Q08722 19-292)
T1 construct: also called CHO-CD47; IAP
Assay: flow cytometry on human red blood cells, donor 2, MFI
measurement-kind: EC50 (read off the curve)

Look up EC50 (read off the curve) for this binder: H-ABU44 (antibody, V domains shown) VH: QVQLVQSGAEVKKPGASVKVSCKASGYSFTNYHIHWVRQAPGQRLEWIGWIYPGSGNTKYNEKFKGRATLTADTSASTAYMELSSLRSEDTAVYYCARYDYDLYLHSWGQGTLVTVSS VL: DIQITQSPSSVSASVGDRVTITCHASQNINVWLSWYQQKPGKAPKLLIYKASNLHTGVPSRFSGSGSGTGFTLTISSLQPEDFATYYCQQGQSYPLTFGQGTKLEIK
~0.2 nM

What does the record list as EC50 (read off the curve) for H-ABU 41 (antibody, V domains shown, Humanized antibody) VL: DVQITQSPSSLSASVGDRVTITCRASKNIGKYLAWFQQKPGKTNKLLIYSGSTLQSGIPSRFSGSGSGTDFTLTISSLQPEDFATYYCQQHNEYPYTFGGGTKVEIK VH: QVQLQQSGAEVKKPGASVKVSCKTSGYSFTNYWMQWVRQAPGQGLEWIGMIDPSDSESRLNQKFKDKATLTVDKSTSTAYMELSSLRSEDTAVYYCARRGSPMITSFAYWGQGTLVTVSS ?
~1 nM

What measured EC50 (read off the curve) goes with H-ABU 10 (antibody, V domains shown) VL: DIVMTQSPDSLAVSLGERATINCKSSQSLVSSSQKNYLAWYQQKPGQPPKLLIYWASVRDSGVPDRFSGSGSGTDFTLTISSLQAEDVAVYYCQQYYSYPLTFGQGTKVEIK VH: QVQLVQSGAEVKKPGASVKVSCKASGYTFTDNYINWVRQAPGQRLEWMGWIYLGSGNTKYNEKFKGRVTITRDTSASTAYMELSSLRSEDTAVYYCARREERGFAPWGQGTLVTVSS ?
~3 nM
